Tested on: P. aeruginosa [KCTC 1637]
Type: cell-based, Pseudomonas aeruginosa
Settings: KCTC 1637, 20 h
For each record, write down the corresponding Minimal Inhibitory Concentration (MIC) P. aeruginosa [KCTC 1637].

Dear colleague, I am looking for the recorded Minimal Inhibitory Concentration (MIC) P. aeruginosa [KCTC 1637] of the following compound: N=C(N)NCCC[C@@H](NC(=O)[C@@H](N)Cc1c[n+](CCCCCCCc2ccccc2)cn1CCCCCCCc1ccccc1)C(N)=O 4 (6.1) µg/mL

// repeat for N=C(N)NCCC[C@@H](N)C(=O)N[C@@H](Cc1c[n+](CCCCCCCc2ccccc2)cn1CCCCCCCc1ccccc1)C(=O)N[C@H](CCCNC(=N)N)C(N)=O and report 16 (19.6) µg/mL

// repeat for N=C(N)NCCC[C@H](NC(=O)[C@H](Cc1cncn1CCCCCCCc1ccccc1)NC(=O)[C@@H](N)CCCNC(=N)N)C(N)=O and report 32 (49.9) µg/mL

// repeat for N=C(N)NCCC[C@H](NC(=O)[C@H](Cc1c[n+](CCCc2ccccc2)cn1CCCc1ccccc1)NC(=O)[C@@H](N)CCCNC(=N)N)C(N)=O and report 16 (22.7) µg/mL

// repeat for N=C(N)NCCC[C@H](NC(=O)[C@H](Cc1c[n+](CCCCCCCc2ccccc2)cn1CCCCCCCc1ccccc1)NC(=O)[C@@H](N)CCCNC(=N)N)C(N)=O and report 4 (4.9) µg/mL

Reference source for all entries: paper PMC3841161
